# tested.on: human NK-2 receptor (ヒトNK-2レセプター) (Homo sapiens, UniProt P21452)
# Construct: expressed in transfected cells; host or cells: Chinese hamster ovary (CHO) cells, G418-selected; membranes prepared
# Sequence (P21452 whole entry): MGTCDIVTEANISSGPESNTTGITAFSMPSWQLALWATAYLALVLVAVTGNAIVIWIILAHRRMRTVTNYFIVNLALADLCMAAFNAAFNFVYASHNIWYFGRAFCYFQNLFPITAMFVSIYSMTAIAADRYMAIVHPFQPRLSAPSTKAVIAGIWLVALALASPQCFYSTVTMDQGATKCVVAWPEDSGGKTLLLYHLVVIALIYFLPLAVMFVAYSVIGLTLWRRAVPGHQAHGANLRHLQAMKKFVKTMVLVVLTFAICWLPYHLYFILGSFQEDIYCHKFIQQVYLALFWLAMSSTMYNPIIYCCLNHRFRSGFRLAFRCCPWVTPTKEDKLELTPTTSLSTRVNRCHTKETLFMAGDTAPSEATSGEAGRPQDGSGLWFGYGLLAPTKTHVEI
# assay.comment: Neurokinin receptor binding assay, human NK2 ([3H]-neurokinin A displacement, transfected CHO cell membranes)
Collected Ki values appear next to each entry.

compound: CN(CCc1ccccc1)C(=O)CC(CCN1CCC(O)(c2ccccc2)CC1)c1ccc(Cl)c(Cl)c1 (stereo not drawn)
Ki / nM: 46
--
compound: CN(C(=O)CC(CCN1CCC(O)(c2ccccc2)CC1)c1ccc(Cl)c(Cl)c1)c1ccccc1 (stereo not drawn)
Ki / nM: 5.2
--
compound: COc1ccccc1CN(C)C(=O)CC(CCN1CCC(O)(c2ccccc2)CC1)c1ccc(Cl)c(Cl)c1 (stereo not drawn)
Ki / nM: 33

Provenance of the data: patent JPH10251228A
